- measurement.protocol: Plasma pharmacokinetics of BIBF 1120 (HPLC-MS/MS)
- Format: in vivo, human
- conditions: male, human, plasma, po, 250 mg, oral 250 mg BID; treatment cycle 2; read-out: AUC0−24, gMean (gCV%)
measured.attribute: AUC(0-t)

INSERT INTO results (smiles_structure, result) VALUES
  ('COC(=O)c1ccc2c(c1)NC(=O)/C2=C(\Nc1ccc(N(C)C(=O)CN2CCN(C)CC2)cc1)c1ccccc1', '410 ng·h/mL');

* * *

- measurement.protocol: Plasma pharmacokinetics of BIBF 1120 (HPLC-MS/MS)
- Type: in vivo, human
- conditions: male, human, plasma, po, 250 mg, oral 250 mg BID; day 2 of treatment cycle 1; read-out: AUC0−24, gMean (gCV%)
measured.attribute: AUC(0-t)

INSERT INTO measurements (smiles_structure, measured_attribute, result) VALUES
  ('COC(=O)c1ccc2c(c1)NC(=O)/C2=C(\Nc1ccc(N(C)C(=O)CN2CCN(C)CC2)cc1)c1ccccc1', 'AUC(0-t)', '454 ng·h/mL');

* * *

- measurement.protocol: Plasma pharmacokinetics of docetaxel (HPLC-MS/MS)
- Format: in vivo
- conditions: human, iv, docetaxel 75 mg m^−2 IV + BIBF 1120 250 mg BID, treatment cycle 1 (n=12), read-out: tmax, median and range
measured.attribute: Tmax (h)

INSERT INTO measurements (smiles_structure, unit_tag, quantitative_readout) VALUES
  ('CC(=O)O[C@@]12CO[C@@H]1C[C@H](O)[C@@]1(C)C(=O)[C@H](O)C3=C(C)[C@@H](OC(=O)[C@H](O)[C@@H](NC(=O)OC(C)(C)C)c4ccccc4)C[C@@](O)([C@@H](OC(=O)c4ccccc4)[C@H]21)C3(C)C', 'h', 1.02);

* * *

- measurement.protocol: Plasma pharmacokinetics of docetaxel (HPLC-MS/MS)
- Format: in vivo
- conditions: male, human, iv, docetaxel 75 mg m^−2 IV + BIBF 1120 250 mg BID, treatment cycle 1 (n=12), read-out: AUC0−∞, gMean (gCV%)
measured.attribute: AUC(0-inf) (ng·h/mL)

INSERT INTO results (compound, quantitative_readout) VALUES
  ('CC(=O)O[C@@]12CO[C@@H]1C[C@H](O)[C@@]1(C)C(=O)[C@H](O)C3=C(C)[C@@H](OC(=O)[C@H](O)[C@@H](NC(=O)OC(C)(C)C)c4ccccc4)C[C@@](O)([C@@H](OC(=O)c4ccccc4)[C@H]21)C3(C)C [docetaxel]', 1860);

* * *

- measurement.protocol: Plasma pharmacokinetics of docetaxel (HPLC-MS/MS)
- Assay type: in vivo
- conditions: male, human, docetaxel 75 mg m^−2 IV + BIBF 1120 250 mg BID, treatment cycle 1 (n=12), read-out: t1/2, gMean (gCV%) (converted)
measured.attribute: half-life (h)

INSERT INTO measurements (smiles_structure, quantitative_readout) VALUES
  ('CC(=O)O[C@@]12CO[C@@H]1C[C@H](O)[C@@]1(C)C(=O)[C@H](O)C3=C(C)[C@@H](OC(=O)[C@H](O)[C@@H](NC(=O)OC(C)(C)C)c4ccccc4)C[C@@](O)([C@@H](OC(=O)c4ccccc4)[C@H]21)C3(C)C', 20.2);

* * *

- measurement.protocol: Plasma pharmacokinetics of BIBF 1120 (HPLC-MS/MS)
- Type: in vivo, human
- conditions: human, plasma, po, 250 mg, oral 250 mg BID; day 2 of treatment cycle 2; with docetaxel; read-out: Cmax, gMean (gCV%)
measured.attribute: Cmax

INSERT INTO results (smiles_structure, result) VALUES
  ('COC(=O)c1ccc2c(c1)NC(=O)/C2=C(\Nc1ccc(N(C)C(=O)CN2CCN(C)CC2)cc1)c1ccccc1', '45.9 ng/mL');
